Cited source: ChEMBL document CHEMBL3988442

Tested on: Wolbachia pipientis
experiment_notes: Anti-Wolbachia Cell-Based Screen
Assay type: functional
Set-up: scale not given: in the data most compounds retested in dose-response had high values
assay_context: 5 µM
Hit rate of the full screen: of about 48,000 compounds, about 13,000 (27%) showed an effect of 50% or more. Some of the results follow.
Listing of entries alongside the reported Percent Effect.
quantity_kind: Percent Effect (%)

>>> reported_value("O=C(NC1CCCC1)[C@H]1C[C@H]2OCC[C@H]2N(Cc2ccoc2)C1.O=C(O)C(F)(F)F")
13.19
>>> reported_value("COc1ccc(CC2CN(C(=O)c3coc(C)n3)CCO2)cc1 (stereo not given)")
123
>>> reported_value("O=C(N[C@@H]1CN(Cc2ccoc2)[C@@H]2CCCO[C@@H]21)C1CC1.O=C(O)C(F)(F)F")
105.3
>>> reported_value("O=C(c1cnccn1)N1CCC2(CCCN(Cc3ccoc3)C2)C1 (stereo not given)")
7.611
>>> reported_value("O=C(N[C@@H]1CN(Cc2cccs2)[C@@H]2CCCO[C@@H]21)C1CC1")
-17.92
>>> reported_value("CN(C)C(=O)[C@H]1C[C@H]2OCC[C@H]2N(Cc2ccc3c(c2)OCO3)C1.O=C(O)C(F)(F)F")
0.2139
>>> reported_value("CCC1CN(C(=O)c2cc(CN(C)CCc3ccccc3)on2)CCO1 (stereo not given)")
-31.04
>>> reported_value("CCN1CCN(CC(=O)N2CCOC(Cc3ccc(OC)cc3)C2)CC1 (stereo not given)")
-7.63
>>> reported_value("Cc1n[nH]c(CCC(=O)N2CCOC(Cc3ccccc3)C2)c1C (stereo not given)")
0.4396
>>> reported_value("CC1c2ncc(COc3cccnc3)n2CCN1Cc1cnn(C)c1.O=C(O)C(F)(F)F.O=C(O)C(F)(F)F (stereo not given)")
101.1
>>> reported_value("O=C(c1cnccn1)N1CCN(Cc2csc(-c3ccccc3)n2)CC1")
5.031
>>> reported_value("Cc1sc2nc(C(F)(F)F)nc(N3CCN(C)CC3)c2c1C")
8.571
>>> reported_value("O=C(c1cnccn1)N1CCC2(CCN(Cc3ccsc3)CC2)CC1")
105.9
>>> reported_value("Cn1cccc1CN1CCC2(CC1)CCN(C(=O)c1cnccn1)CC2.O=C(O)C(F)(F)F")
3.989
>>> reported_value("Cc1ccsc1C(=O)N1CC2CC1(C(=O)NCC1CC1)C2")
-19.62
>>> reported_value("COCc1cnc2n1CCN(Cc1cccnc1)C2C.O=C(O)C(F)(F)F.O=C(O)C(F)(F)F (stereo not given)")
-12.59
>>> reported_value("CN(C)C(=O)N[C@@H]1CN(Cc2ccc3c(c2)OCO3)[C@@H]2CCCO[C@@H]21.O=C(O)C(F)(F)F")
-22.69
>>> reported_value("O=C(N[C@@H]1CN(Cc2ccsc2)[C@@H]2CCCO[C@@H]21)C1CC1")
-8.929
>>> reported_value("O=C(O)C(F)(F)F.O=C([C@H]1C[C@H]2OCC[C@H]2N(Cc2ccoc2)C1)N1CCCO1")
7.487
>>> reported_value("Cc1ncsc1CN1CCn2c(COc3cccnc3)cnc2C1C.O=C(O)C(F)(F)F.O=C(O)C(F)(F)F (stereo not given)")
-6.197
